These entries and their values trace back to paper PMC11912270.

Test system: Chinese hamster ovary (CHO) cell line
Assay: MTT cytotoxicity assay
Assay type: cell-based
Conditions: cytotoxicity, MTT, 48 h; N, n = 1, 3; read-out: CHO IC50
pIC50: −log10 of the molar value.
ASSAY ENDPOINT: pIC50

* OCCN(CCO)C1=NC(c2ccccc2)=[O+][Pt-2]2([S]1)[n+]1ccc(Cl)cc1-c1cc(Cl)cc[n+]12.[Cl-] | < 4.30
* Cc1cccc(-c2cccc(C)n2)n1.OCCN(CCO)C(=S)N=C([O][Pt+])c1ccccc1.[Cl-] | 5.30
* Cc1ccc(-c2ccc(C)cn2)nc1.OCCN(CCO)C(=S)N=C([O][Pt+])c1ccccc1.[Cl-] | < 4.30
* OCCN(CCO)C1=NC(c2ccccc2)=[O+][Pt-2]2([S]1)[n+]1ccc(O)cc1-c1cc(O)cc[n+]12.[Cl-] | < 4.30
